Every entry's value here was drawn from patent US20190041402A1.

Target Entity: T1, extracellular domain (ECD) of human αKlotho, amino acids E34-S981 with C-terminal 6-His tag (R&D Systems … (human, UniProt Q9UEF7 34-981))
T1 construct: range 34-981; also called αKlotho (aa34-981); target antigen
T1 sequence: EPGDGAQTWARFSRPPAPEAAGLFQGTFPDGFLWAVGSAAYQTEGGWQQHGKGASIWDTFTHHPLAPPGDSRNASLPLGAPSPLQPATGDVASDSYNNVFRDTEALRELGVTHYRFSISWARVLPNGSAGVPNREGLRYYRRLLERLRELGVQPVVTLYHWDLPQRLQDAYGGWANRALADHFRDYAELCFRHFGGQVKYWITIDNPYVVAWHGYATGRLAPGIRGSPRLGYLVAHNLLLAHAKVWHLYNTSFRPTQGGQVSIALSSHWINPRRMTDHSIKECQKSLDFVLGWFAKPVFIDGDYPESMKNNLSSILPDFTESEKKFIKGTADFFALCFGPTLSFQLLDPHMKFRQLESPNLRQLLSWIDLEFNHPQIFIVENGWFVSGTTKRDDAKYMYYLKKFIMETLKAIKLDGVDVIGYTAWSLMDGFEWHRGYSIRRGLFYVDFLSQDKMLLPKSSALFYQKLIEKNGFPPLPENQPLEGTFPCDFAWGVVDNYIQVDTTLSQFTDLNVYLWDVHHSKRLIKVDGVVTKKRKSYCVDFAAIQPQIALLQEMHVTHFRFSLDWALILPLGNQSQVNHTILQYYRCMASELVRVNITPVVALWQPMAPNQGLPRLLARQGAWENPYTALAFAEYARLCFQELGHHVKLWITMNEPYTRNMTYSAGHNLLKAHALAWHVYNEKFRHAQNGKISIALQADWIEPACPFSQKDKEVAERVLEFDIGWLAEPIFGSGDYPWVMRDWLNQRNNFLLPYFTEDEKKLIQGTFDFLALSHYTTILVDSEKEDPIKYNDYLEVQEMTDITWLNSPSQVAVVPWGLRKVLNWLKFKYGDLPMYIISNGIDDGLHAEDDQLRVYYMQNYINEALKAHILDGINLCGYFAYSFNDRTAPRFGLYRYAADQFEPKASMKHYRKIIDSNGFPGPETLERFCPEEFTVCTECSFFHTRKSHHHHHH
Test Method Notes: SPR, Fab captured by anti-H+L antibody, αKlotho injected
Recorded Kd split into classes lower band (below 2 nM), central band (2 nM to below 4 nM), upper band (4 nM or more)

anti-αKlotho Fab clone 4818 (Fab, V domains shown, Fab (also as Fab-phage); FLAG tag on light chain; also called sb187) VH: EVQLVESGGGLVQPGGSLRLSCAASGFNISYSSIHWVRQAPGKGLEWVASISPYSGYTYYADSVKGRFTISADTSKNTAYLQMNSLRAEDTAVYYCARSGHSVYWWWSHFGMDYWGQGTLVTVSS VL: DIQMTQSPSSLSASVGDRVTITCRASQSVSSAVAWYQQKPGKAPKLLIYSASSLYSGVPSRFSGSRSGTDFTLTISSLQPEDFATYYCQQPYSPITFGQGTKVEIKR; central band
anti-αKlotho Fab clone 4830 (Fab, V domains shown, Fab (also as Fab-phage); FLAG tag on light chain; also called sb199) VH: EVQLVESGGGLVQPGGSLRLSCAASGFNIYYSSIHWVRQAPGKGLEWVASIYPYYSYTYYADSVKGRFTISADTSKNTAYLQMNSLRAEDTAVYYCARSVASALDYWGQGTLVTVSS VL: DIQMTQSPSSLSASVGDRVTITCRASQSVSSAVAWYQQKPGKAPKLLIYSASSLYSGVPSRFSGSRSGTDFTLTISSLQPEDFATYYCQQYSWYWYSPITFGQGTKVEIKR; central band
anti-αKlotho Fab clone 4811 (Fab, V domains shown, Fab (also as Fab-phage); FLAG tag on light chain; also called sb180) VH: EVQLVESGGGLVQPGGSLRLSCAASGFNLYYSYMHWVRQAPGKGLEWVASIYSSSSYTSYADSVKGRFTISADTSKNTAYLQMNSLRAEDTAVYYCARSPSWWVSYHSALDYWGQGTLVTVSS VL: DIQMTQSPSSLSASVGDRVTITCRASQSVSSAVAWYQQKPGKAPKLLIYSASSLYSGVPSRFSGSRSGTDFTLTISSLQPEDFATYYCQQGYALFTFGQGTKVEIKR; central band
anti-αKlotho Fab clone 4821 (Fab, V domains shown, Fab (also as Fab-phage); FLAG tag on light chain; also called sb190) VH: EVQLVESGGGLVQPGGSLRLSCAASGFNLYYSYMHWVRQAPGKGLEWVASISPYSGSTYYADSVKGRFTISADTSKNTAYLQMNSLRAEDTAVYYCARSGFSSWWWVVSYAFDYWGQGTLVTVSS VL: DIQMTQSPSSLSASVGDRVTITCRASQSVSSAVAWYQQKPGKAPKLLIYSASSLYSGVPSRFSGSRSGTDFTLTISSLQPEDFATYYCQQSSYSLITFGQGTKVEIKR; upper band
anti-αKlotho Fab clone 4805 (Fab, V domains shown, Fab (also as Fab-phage); FLAG tag on light chain; also called sb174) VH: EVQLVESGGGLVQPGGSLRLSCAASGFNLSYYSMHWVRQAPGKGLEWVASISSYYGSTYYADSVKGRFTISADTSKNTAYLQMNSLRAEDTAVYYCARGGGYYSGPYAGFDYWGQGTLVTVSS VL: DIQMTQSPSSLSASVGDRVTITCRASQSVSSAVAWYQQKPGKAPKLLIYSASSLYSGVPSRFSGSRSGTDFTLTISSLQPEDFATYYCQQSSGWYHFLFTFGQGTKVEIKR; lower band

Challenge: Classify this binder: anti-αKlotho Fab clone 4804 (Fab, V domains shown, Fab (also as Fab-phage); FLAG tag on light chain C-terminus; also called sb173) VH: EVQLVESGGGLVQPGGSLRLSCAASGFNLYSYSIHWVRQAPGKGLEWVAYISSSSGSTYYADSVKGRFTISADTSKNTAYLQMNSLRAEDTAVYYCARGWGGGYWFYPVYGIDYWGQGTLVTVSS VL: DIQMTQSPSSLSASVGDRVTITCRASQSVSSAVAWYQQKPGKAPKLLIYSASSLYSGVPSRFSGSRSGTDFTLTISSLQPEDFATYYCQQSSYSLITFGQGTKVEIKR
Response given: lower band

Challenge: Classify this binder: anti-αKlotho Fab clone 4816 (Fab, V domains shown, Fab (also as Fab-phage); FLAG tag on light chain; also called sb185) VH: EVQLVESGGGLVQPGGSLRLSCAASGFNFSSSSIHWVRQAPGKGLEWVASISSSYGYTYYADSVKGRFTISADTSKNTAYLQMNSLRAEDTAVYYCARGWYAAYSVYWFGGHASYGLDYWGQGTLVTVSS VL: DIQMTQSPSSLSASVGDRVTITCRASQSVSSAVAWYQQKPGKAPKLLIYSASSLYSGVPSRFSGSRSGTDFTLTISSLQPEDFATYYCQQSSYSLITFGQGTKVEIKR
Response given: central band

Challenge: Classify this binder: anti-αKlotho Fab clone 4807 (Fab, V domains shown, Fab (also as Fab-phage); FLAG tag on light chain; also called sb176) VH: EVQLVESGGGLVQPGGSLRLSCAASGFNLSSSYMHWVRQAPGKGLEWVASIYPSYGSTSYADSVKGRFTISADTSKNTAYLQMNSLRAEDTAVYYCARGVVPSYYYWFWPYGAIDYWGQGTLVTVSS VL: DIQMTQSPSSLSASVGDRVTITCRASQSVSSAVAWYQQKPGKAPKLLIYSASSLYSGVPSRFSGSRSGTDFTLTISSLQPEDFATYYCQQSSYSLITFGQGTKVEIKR
Response given: upper band

Challenge: Classify this binder: anti-αKlotho Fab clone 4813 (Fab, V domains shown, Fab (also as Fab-phage); FLAG tag on light chain; also called sb182) VH: EVQLVESGGGLVQPGGSLRLSCAASGFNLYSSSIHWVRQAPGKGLEWVASISPYSGYTYYADSVKGRFTISADTSKNTAYLQMNSLRAEDTAVYYCARYYSGWYSPAWWYGIDYWGQGTLVTVSS VL: DIQMTQSPSSLSASVGDRVTITCRASQSVSSAVAWYQQKPGKAPKLLIYSASSLYSGVPSRFSGSRSGTDFTLTISSLQPEDFATYYCQQAAWGGAPITFGQGTKVEIKR
Response given: upper band
